I'd be grateful if you could share measured MDCK Permeability (cm × 10-6/sec) for these entries.
test system: MDCKII cells; assay: Apparent permeability in MDCKII cells; format: in vitro ADME; conditions: Papp, average of A to B and B to A, 1 μM test compound, t=3 hr
Answer in cm × 10-6/sec, number only, no unit symbol.

What does the data say about its MDCK Permeability (cm × 10-6/sec)? Entry: CCCC1O[C@@H]2C[C@H]3[C@@H]4CCC5=Cc6c(cnn6-c6ccc(OCCCCCCP(=O)(O)O)cc6)C[C@]5(C)[C@H]4[C@@H](O)C[C@]3(C)[C@]2(C(=O)CO)O1 (some centres unmarked) [Compound 31] 4.1

What does the data say about its MDCK Permeability (cm × 10-6/sec)? Entry: CCC(=O)O[C@]1(C(=O)SCCCCP(=O)(O)O)[C@H](C)C[C@H]2[C@@H]3C[C@H](F)C4=CC(=O)C=C[C@]4(C)[C@@]3(F)[C@@H](O)C[C@@]21C [Compound 4] 1.72

What does the data say about its MDCK Permeability (cm × 10-6/sec)? Entry: C[C@@H]1C[C@H]2[C@@H]3C[C@H](F)C4=CC(=O)C=C[C@]4(C)[C@@]3(F)[C@@H](O)C[C@]2(C)[C@@]1(O)C(=O)SCCCCCCCCCCP(=O)(O)O [Compound 8] 2.8

What does the data say about its MDCK Permeability (cm × 10-6/sec)? Entry: CCC(=O)O[C@]1(C(=O)SCF)[C@H](C)C[C@H]2[C@@H]3C[C@H](F)C4=CC(=O)C=C[C@]4(C)[C@@]3(F)[C@@H](O)C[C@@]21C [Fluticasone Propionate, reference compound] 21.5

What does the data say about its MDCK Permeability (cm × 10-6/sec)? Entry: CCCC1O[C@@H]2C[C@H]3[C@@H]4CCC5=Cc6c(cnn6-c6ccc(OCCCCP(=O)(O)O)cc6)C[C@]5(C)[C@H]4[C@@H](O)C[C@]3(C)[C@]2(C(=O)CO)O1 (some centres unmarked) [Compound 30] 1.9
